B1: TPR t1 (parent)
chain: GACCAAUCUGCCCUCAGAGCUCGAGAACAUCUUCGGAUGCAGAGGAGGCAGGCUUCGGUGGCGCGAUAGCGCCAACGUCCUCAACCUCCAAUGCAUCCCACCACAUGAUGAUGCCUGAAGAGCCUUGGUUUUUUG

Variants of: B1
Test: polymerase ribozyme fitness, log enrichment relative to wild type (log ratio); higher = more active; in vitro selection for triplet polymerase activity
Listing: polymerase ribozyme fitness (log ratio) of selected variants
Endpoint label: polymerase ribozyme fitness (log ratio)

mutation="C12A C73U C76A G120C" endpoint_label="polymerase ribozyme fitness (log ratio)" assay_result=-0.37
mutation="A27C C49U" endpoint_label="polymerase ribozyme fitness (log ratio)" assay_result=-4.08
mutation="C53U U59A A84U U126C" endpoint_label="polymerase ribozyme fitness (log ratio)" assay_result=-2.21
mutation="C15U G71U" endpoint_label="polymerase ribozyme fitness (log ratio)" assay_result=-1.38
mutation="C49A U112A" endpoint_label="polymerase ribozyme fitness (log ratio)" assay_result=1.49
mutation="G10A C70U A121U" endpoint_label="polymerase ribozyme fitness (log ratio)" assay_result=1.19
mutation="G71A A74G C88A C97A G117C" endpoint_label="polymerase ribozyme fitness (log ratio)" assay_result=-5.77
mutation="C12G A41C C82U" endpoint_label="polymerase ribozyme fitness (log ratio)" assay_result=-0.401
mutation="A2U C13A C73U A74G" endpoint_label="polymerase ribozyme fitness (log ratio)" assay_result=-3.05
mutation="C49A C64U A66C C80A G117A" endpoint_label="polymerase ribozyme fitness (log ratio)" assay_result=-7.53
mutation="G47C C56A" endpoint_label="polymerase ribozyme fitness (log ratio)" assay_result=-2.47
mutation=G57A endpoint_label="polymerase ribozyme fitness (log ratio)" assay_result=-0.653
mutation="C56G U133A" endpoint_label="polymerase ribozyme fitness (log ratio)" assay_result=-0.615
mutation="G35A C98G" endpoint_label="polymerase ribozyme fitness (log ratio)" assay_result=-6.5
mutation="C20A U21A C73G" endpoint_label="polymerase ribozyme fitness (log ratio)" assay_result=-4.94
mutation="G10A A90C G93C A111U" endpoint_label="polymerase ribozyme fitness (log ratio)" assay_result=-5.12
mutation="G39A C49U G57A A84U C97U G120C C124U G128U U132A" endpoint_label="polymerase ribozyme fitness (log ratio)" assay_result=-2.74
mutation="A18U G42U G69A A100U C114A G128U" endpoint_label="polymerase ribozyme fitness (log ratio)" assay_result=-7.14
mutation="U14G G42C A46C C53U G61A" endpoint_label="polymerase ribozyme fitness (log ratio)" assay_result=-4.45
mutation="G10C C11U C13A A37U C70U" endpoint_label="polymerase ribozyme fitness (log ratio)" assay_result=-0.31
mutation="A6U G10C C12A U87A" endpoint_label="polymerase ribozyme fitness (log ratio)" assay_result=-0.928
mutation="G17U C72U C89A" endpoint_label="polymerase ribozyme fitness (log ratio)" assay_result=-3.71
mutation="A18C G63U" endpoint_label="polymerase ribozyme fitness (log ratio)" assay_result=-4.53
mutation="G48U C70U" endpoint_label="polymerase ribozyme fitness (log ratio)" assay_result=-1.39
mutation="U33C C62U" endpoint_label="polymerase ribozyme fitness (log ratio)" assay_result=-5.05
mutation="C53A C56U" endpoint_label="polymerase ribozyme fitness (log ratio)" assay_result=-0.113
mutation="G69U C114A" endpoint_label="polymerase ribozyme fitness (log ratio)" assay_result=-0.78
mutation="G10A C53A G71C C104U G110A C114G" endpoint_label="polymerase ribozyme fitness (log ratio)" assay_result=-6.44
mutation="G69C U78C A84C" endpoint_label="polymerase ribozyme fitness (log ratio)" assay_result=-2.73
mutation="A50G G51A C72G C88U G110U" endpoint_label="polymerase ribozyme fitness (log ratio)" assay_result=-5.05
mutation="G60U G117U" endpoint_label="polymerase ribozyme fitness (log ratio)" assay_result=-1.65
mutation="U9A G39C C99U" endpoint_label="polymerase ribozyme fitness (log ratio)" assay_result=-2.83
mutation="C11A U116G" endpoint_label="polymerase ribozyme fitness (log ratio)" assay_result=-4.36
mutation="G47U A50U U59C C73A U78A" endpoint_label="polymerase ribozyme fitness (log ratio)" assay_result=-2.43
mutation="A66U C73U A83U A100U C123U U125G" endpoint_label="polymerase ribozyme fitness (log ratio)" assay_result=-2.19
mutation="C114A G117U" endpoint_label="polymerase ribozyme fitness (log ratio)" assay_result=-6.19
mutation="G71C G77C C114G U116G" endpoint_label="polymerase ribozyme fitness (log ratio)" assay_result=-5.32
mutation="C40G C56A" endpoint_label="polymerase ribozyme fitness (log ratio)" assay_result=-1.63
mutation=A83C endpoint_label="polymerase ribozyme fitness (log ratio)" assay_result=-0.225
mutation="C12G G19A G63U C79G U81G U112C G117U" endpoint_label="polymerase ribozyme fitness (log ratio)" assay_result=-7.76
mutation="C13U C40U C124U G135C" endpoint_label="polymerase ribozyme fitness (log ratio)" assay_result=0.605
mutation="C3A G39C C72U U92A A111G" endpoint_label="polymerase ribozyme fitness (log ratio)" assay_result=-5.51
mutation="C8U C73U U112A" endpoint_label="polymerase ribozyme fitness (log ratio)" assay_result=1.84
mutation="G44C G51U G60U C123U" endpoint_label="polymerase ribozyme fitness (log ratio)" assay_result=-2.6
mutation="A43C C49G A84G C115U G135U" endpoint_label="polymerase ribozyme fitness (log ratio)" assay_result=-6.22
mutation="C13G G60A G77C U130C" endpoint_label="polymerase ribozyme fitness (log ratio)" assay_result=-3.08

Data provenance is the RNAGym collection of RNA variant scans (doi:10.1073/pnas.2313332121).
